All values here come from patent US10800813.

TEST_TARGET: T1, human plasma Kallikrein (human, UniProt P03952 20-638, limits assumed)
T1 construct: also called hPK; human PK
T1 sequence (P03952 20-638 limits assumed): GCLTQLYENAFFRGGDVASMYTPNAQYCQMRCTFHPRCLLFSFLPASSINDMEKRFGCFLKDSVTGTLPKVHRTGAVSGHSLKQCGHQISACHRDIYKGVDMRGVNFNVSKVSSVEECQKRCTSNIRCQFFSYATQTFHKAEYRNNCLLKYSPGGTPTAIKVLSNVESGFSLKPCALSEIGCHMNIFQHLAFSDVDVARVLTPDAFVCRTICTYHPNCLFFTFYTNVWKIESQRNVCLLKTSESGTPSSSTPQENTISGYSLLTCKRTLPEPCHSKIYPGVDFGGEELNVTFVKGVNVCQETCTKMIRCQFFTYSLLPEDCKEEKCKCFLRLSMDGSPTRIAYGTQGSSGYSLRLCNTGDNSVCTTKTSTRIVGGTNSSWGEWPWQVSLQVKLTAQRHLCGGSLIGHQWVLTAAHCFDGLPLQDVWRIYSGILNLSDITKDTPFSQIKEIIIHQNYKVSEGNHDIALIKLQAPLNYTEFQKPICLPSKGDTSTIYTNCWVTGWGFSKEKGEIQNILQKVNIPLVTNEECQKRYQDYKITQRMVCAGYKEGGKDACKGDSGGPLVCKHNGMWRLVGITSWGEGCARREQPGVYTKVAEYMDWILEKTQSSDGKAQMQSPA
PROTOCOL_DESCRIPTION: enzyme inhibition assay
pKi: −log10 of the molar value. Numbered stars: 1 amine (or outer) side, 2 acyl side, 3 side chain; on linkers, the order of the positions; unused ones are H or OH. Bridge positions count the residues as written; N and C are the ends. Square brackets hold non-standard residues; d marks the D form. TBMB = c1c(C[*:1])cc(C[*:3])cc1C[*:2]; Hyp = O=C(O)[C@@H]1C[C@@H](O)CN1; Aib = CC(C)(N)C(=O)O
# pKi per record follows
EXPERIMENTAL_ENDPOINT: pKi

BINDER	EXPERIMENTAL_ENDPOINT	NUMERIC_VALUE
Ac-CSW[Aib]ARCLHQDLC-NH2 (linker 1-7-13 via TBMB; SMILES CC(=O)N[C@H]1CSCc2cc3cc(c2)CSC[C@H](NC(=O)[C@H](CCCNC(=N)N)NC(=O)[C@H](C)NC(=O)C(C)(C)NC(=O)[C@H](Cc2c[nH]c4ccccc24)NC(=O)[C@H](CO)NC1=O)C(=O)N[C@@H](CC(C)C)C(=O)N[C@@H](Cc1c[nH]cn1)C(=O)N[C@@H](CCC(N)=O)C(=O)N[C@@H](CC(=O)O)C(=O)N[C@@H](CC(C)C)C(=O)N[C@H](C(N)=O)CSC3) [Ac-(06-34-18) Aib3]	pKi	8.92
Ac-CSW[Hyp]ARCLHQDLC-NH2 (linker 1-7-13 via TBMB; SMILES CC(=O)N[C@H]1CSCc2cc3cc(c2)CSC[C@H](NC(=O)[C@H](CCCNC(=N)N)NC(=O)[C@H](C)NC(=O)[C@@H]2C[C@@H](O)CN2C(=O)[C@H](Cc2c[nH]c4ccccc24)NC(=O)[C@H](CO)NC1=O)C(=O)N[C@@H](CC(C)C)C(=O)N[C@@H](Cc1c[nH]cn1)C(=O)N[C@@H](CCC(N)=O)C(=O)N[C@@H](CC(=O)O)C(=O)N[C@@H](CC(C)C)C(=O)N[C@H](C(N)=O)CSC3) [Ac-(06-34-18) HyP3]	pKi	9.39
